Quick list: ED50 per entry.
- System: Bombyx mori
- Assay explanation: Induction of precocious metamorphosis-inducing activity against fourth-instar larvae of Bombyx mori Shunrei x shogetsu compound treated topically
- Type: functional

Compound	ED50
CCCCCCCCn1ccnc1	>40 µg
c1ccc(CCn2ccnc2)cc1	>80 µg
CCCCCCCCCCOc1ccc(-n2ccnc2)cc1	>80 µg
c1ccc(OCCCn2ccnc2)cc1	>80 µg
CCCCCCCCCCCCCCn1ccnc1	30 µg
CCc1ccc(OCCn2ccnc2)cc1	>160 µg
c1ccc(COc2ccc(OCCCn3ccnc3)cc2)cc1	>160 µg
CCc1ccc(OCCCCn2ccnc2)cc1	>160 µg
CC(C)=CCCC(C)CCn1ccnc1 (stereo not given)	>40 µg
CCCCCCOc1ccc(OCCCn2ccnc2)cc1	36 µg

Just for reference, ChEMBL document CHEMBL3046881 is where these values come from.
